Measurement record for human HSP90 alpha protein (N-terminal, amino acids 2 to 236) (Homo sapiens (Human)); quantity recorded: pIC50.
pIC50: −log10 of the molar value.
measurement.kind: pIC50

Would you please look over these solved cases?
COc1cncc(-c2cccc3c(-c4ccc(C(N)=O)c(NC5CCC(O)CC5)c4)nccc23)c1 (stereo not shown) [Example 24]    6.19
NC(=O)c1ccc(-c2nc(CN3CCOCC3)cc3c(-c4cnc5ccccc5c4)cccc23)cc1NC1CCC(O)CC1 (stereo not shown) [Example 31]    6.10
Cn1cc(-c2cn(-c3cccc4c(-c5ccc(C(N)=O)cc5N)cc(C(F)(F)F)nc34)cn2)cn1 [Example 73]    6.72
Cc1cc(C(N)=O)ccc1-c1cc(C(F)(F)F)nc2c(-n3cnc(-c4cnn(C(F)F)c4)c3)cccc12 [Example 94]    6.30

(1) CC(C)(C)Nc1cc(-c2cc(C(F)(F)F)nc3c(-n4cnc(-c5cnn(C(F)F)c5)c4)cccc23)ccc1C(N)=O [Example 92]
(2) Cc1ccc2ncc(-c3cccc4c(-c5ccc(C(N)=O)c(NC6CCC(O)CC6)c5)nccc34)cc2c1 (stereo not shown) [Example 9]
Q: Quick one: lower pIC50, 1 or 2 ? Kindly give the label for the entry you pick.
A: 1
(1: 6.10, 2: 6.57)
